# EXPERIMENT DESCRIPTION: Dissociation constants determined by potentiometry at 25 degree celsius (phenolic group)
# Type: physicochemical
VALUE KIND: PKa1

- CCN1CCC[C@H]1CNC(=O)c1c(O)c(Cl)cc(Cl)c1OC [RACLOPRIDE]: 5.81
- COc1c(Cl)cc(Cl)c(O)c1C(=O)NC1CCN(C)CC1: 5.96
- CCc1cc(Cl)c(O)c(C(=O)NC[C@@H]2CCCN2CC)c1OC: 6.88

Moving on to the next compound.
stdin: // PKa1 lookup, key: CCN1CCC[C@H]1CNC(=O)c1c(OC)ccc([N+](=O)[O-])c1O
stdout: 5.81

Value source: ChEMBL document CHEMBL1126809
